Molecular target: RET (658-1114) (Homo sapiens)
Construct: 658-1114; expressed in transfected cells; host or cells: 293T.144 (293T cells, generated in-house)
Sequence (P07949 658-1114): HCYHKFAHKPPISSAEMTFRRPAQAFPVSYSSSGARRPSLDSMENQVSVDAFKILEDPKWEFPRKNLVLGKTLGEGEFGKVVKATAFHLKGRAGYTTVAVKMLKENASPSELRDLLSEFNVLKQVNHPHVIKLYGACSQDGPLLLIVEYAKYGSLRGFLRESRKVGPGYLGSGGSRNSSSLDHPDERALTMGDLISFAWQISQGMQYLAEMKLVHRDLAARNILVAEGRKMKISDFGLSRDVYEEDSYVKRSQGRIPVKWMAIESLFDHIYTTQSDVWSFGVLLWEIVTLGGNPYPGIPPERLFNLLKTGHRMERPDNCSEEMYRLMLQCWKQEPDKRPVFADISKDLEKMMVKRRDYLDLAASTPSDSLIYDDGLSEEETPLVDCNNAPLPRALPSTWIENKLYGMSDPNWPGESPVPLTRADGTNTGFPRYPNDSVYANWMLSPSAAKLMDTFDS
Test: HiBiT-Degradation, RET wild-type degradation assay (Nano-Glo HiBiT Lytic), 293T.144 cells
Format: cell-based
Settings: HiBiT-Degradation, 6.0 hours, read-out: 293T.144 RET (658-1114) 6.0 hours (DC50)
Measured DC50 by item
ASSAY READOUT: DC50

• N#Cc1cnn2cc(-c3ccc(N4CCN(C(=O)CN5CCC(c6ccc(NC7CCC(=O)NC7=O)cc6)CC5)CC4)cc3)cc(-c3ccc(N4CC5CC(C4)N5Cc4ccccc4)nc3)c12 (stereo not drawn) = < 50 nM
• N#Cc1cnn2cc(-c3ccc(N4CCN(C(=O)CC5(O)CCN(c6ccc(NC7CCC(=O)NC7=O)cc6)CC5)CC4)cc3)cc(-c3ccc(N4CCN(C(=O)Cc5ccc(F)cn5)CC4)nc3)c12 (stereo not drawn) = < 50 nM
• N#Cc1cnn2cc(-c3cnn([C@H]4CC[C@H](CCN5CCC(c6ccc(NC7CCC(=O)NC7=O)cc6F)CC5)CC4)c3)nc(-c3ccc(N4CCN(C(=O)Cc5ccc(F)cn5)CC4)nc3)c12 (stereo partly drawn) = < 50 nM

* * *

target: RET(KD: 658-1114 G810R) (Homo sapiens, UniProt P07949, G810R); construct: 658-1114; expressed in transfected cells; host or cells: 293T.165 (293T cells, generated in-house); assay: HiBiT-Degradation, RET G810R degradation assay (Nano-Glo HiBiT Lytic), 293T.165 cells; format: cell-based; details: HiBiT-Degradation
Structures can show the parent of a compound that is named as a salt.
ASSAY READOUT: 293T.165 RET(KD: 658-1114 G810R) 6.0 hours (Emax)

* CCC1(NC(=O)C(C)C)CCN(c2ccc(-c3cc(-c4cnn(C5CCN(C(=O)CN6CCC(c7ccc(NC8CCC(=O)NC8=O)cc7F)CC6)CC5)c4)cn4ncc(C#N)c34)cn2)CC1 (stereo not shown) | +++ (<50% = +++)
* N#Cc1cnn2cc(-c3cnn(C4CCN(C(=O)CN5CCC(c6ccc(OC7CCC(=O)NC7=O)cc6F)CC5)CC4)c3)nc(-c3ccc(N4CCN(Cc5cc(F)ccn5)CC4)cc3)c12 (stereo not shown) | +++ (<50% = +++)
* N#Cc1cnn2cc(-c3ccc(N4CCN(C(=O)CN5CCC(c6ccc(NC7CCC(=O)NC7=O)cc6F)CC5)CC4)cc3)cc(-c3ccc(N4CCN(Cc5ccccn5)CC4)nc3)c12 (stereo not shown) | ++++ (< 30% = ++++)
* N#Cc1cnn2cc(-c3ccc(N4CCN(C(=O)CN5CCC(c6ccc(NC7CCC(=O)NC7=O)cc6)CC5)CC4)cc3)cc(-c3ccc(N4CC5CC(C4)N5Cc4ccccc4)nc3)c12 (stereo not shown) | ++++ (< 30% = ++++)
* N#Cc1cnn2cc(-c3cnn(C4CCN(C(=O)CN5CCC(c6ccc(NC7CCC(=O)NC7=O)cc6)CC5)CC4)c3)cc(-c3ccc(N4CCN(C(=O)Cc5ccc(F)cn5)CC4)nc3)c12 (stereo not shown) [Compound 15, formic acid salt] | ++++ (< 30% = ++++)
* CCC1(C(=O)NC(C)C)CCN(c2ccc(-c3nc(-c4cnn(C5CCN(C(=O)CC6(O)CCN(c7ccc(N[C@@H]8CCC(=O)NC8=O)cc7Cl)CC6)CC5)c4)cn4ncc(C#N)c34)cn2)CC1 (single isomer, unassigned) | ++++ (< 30% = ++++)
* CCC1(C(=O)NC(C)C)CCN(c2ccc(-c3nc(-c4cnn(C5CCN(C(=O)CN6CCC(c7ccc(NC8CCC(=O)NC8=O)cc7F)CC6)CC5)c4)cn4ncc(C#N)c34)cn2)CC1 (stereo not shown) | +++ (<50% = +++)
* N#Cc1cnn2cc(-c3ccc(N4CCN(C(=O)CN5CCC(c6ccc(NC7CCC(=O)NC7=O)cc6)CC5)CC4)cc3)cc(-c3ccc(N4CCN(CCc5ccccn5)CC4)nc3)c12 (stereo not shown) | ++++ (< 30% = ++++)
* N#Cc1cnn2cc(-c3ccc(N4CCN(C(=O)CN5CCC(c6ccc(NC7CCC(=O)NC7=O)cc6)CC5)CC4)cc3)cc(-c3ccc(N4C[C@H]5CC[C@@H](C4)O5)nc3)c12 (stereo partly shown) | +++ (<50% = +++)
* CCC1(C(=O)NC2CCOCC2)CCN(c2ccc(-c3cc(-c4cnn([C@H]5CC[C@H](CCN6CCC(c7ccc(NC8CCC(=O)NC8=O)cc7F)CC6)CC5)c4)cn4ncc(C#N)c34)cn2)CC1 (stereo partly shown) | ++++ (< 30% = ++++)
* N#Cc1cnn2cc(-c3ccc(N4CCN(C(=O)CN5CCC(c6ccc(NC7CCC(=O)NC7=O)cc6F)CC5)CC4)cc3)cc(-c3ccc(N4CCN(C(=O)Cc5ccc(F)cn5)CC4)nc3)c12 (stereo not shown) | ++++ (< 30% = ++++)
* CC(C)NC(=O)C1(C)CCN(c2ccc(-c3cc(-c4cnn(C5CCN(C(=O)CN6CCC(c7ccc(NC8CCC(=O)NC8=O)cc7F)CC6)CC5)c4)cn4ncc(C#N)c34)cn2)CC1 (stereo not shown) | +++ (<50% = +++)
* N#Cc1cnn2cc(-c3ccc(N4CCN(C(=O)CN5CCC(c6ccc(NC7CCC(=O)NC7=O)cc6F)CC5)CC4)cc3)nc(-c3ccc(N4CC5CC(C4)N5Cc4ccccc4)nc3)c12 (stereo not shown) | ++++ (< 30% = ++++)
